Source of measurements: patent US20130345204A1

Target: human mGluR5 (Homo sapiens, UniProt P41594)
Sequence (P41594 21-1180 isoform P41594-2 limits assumed): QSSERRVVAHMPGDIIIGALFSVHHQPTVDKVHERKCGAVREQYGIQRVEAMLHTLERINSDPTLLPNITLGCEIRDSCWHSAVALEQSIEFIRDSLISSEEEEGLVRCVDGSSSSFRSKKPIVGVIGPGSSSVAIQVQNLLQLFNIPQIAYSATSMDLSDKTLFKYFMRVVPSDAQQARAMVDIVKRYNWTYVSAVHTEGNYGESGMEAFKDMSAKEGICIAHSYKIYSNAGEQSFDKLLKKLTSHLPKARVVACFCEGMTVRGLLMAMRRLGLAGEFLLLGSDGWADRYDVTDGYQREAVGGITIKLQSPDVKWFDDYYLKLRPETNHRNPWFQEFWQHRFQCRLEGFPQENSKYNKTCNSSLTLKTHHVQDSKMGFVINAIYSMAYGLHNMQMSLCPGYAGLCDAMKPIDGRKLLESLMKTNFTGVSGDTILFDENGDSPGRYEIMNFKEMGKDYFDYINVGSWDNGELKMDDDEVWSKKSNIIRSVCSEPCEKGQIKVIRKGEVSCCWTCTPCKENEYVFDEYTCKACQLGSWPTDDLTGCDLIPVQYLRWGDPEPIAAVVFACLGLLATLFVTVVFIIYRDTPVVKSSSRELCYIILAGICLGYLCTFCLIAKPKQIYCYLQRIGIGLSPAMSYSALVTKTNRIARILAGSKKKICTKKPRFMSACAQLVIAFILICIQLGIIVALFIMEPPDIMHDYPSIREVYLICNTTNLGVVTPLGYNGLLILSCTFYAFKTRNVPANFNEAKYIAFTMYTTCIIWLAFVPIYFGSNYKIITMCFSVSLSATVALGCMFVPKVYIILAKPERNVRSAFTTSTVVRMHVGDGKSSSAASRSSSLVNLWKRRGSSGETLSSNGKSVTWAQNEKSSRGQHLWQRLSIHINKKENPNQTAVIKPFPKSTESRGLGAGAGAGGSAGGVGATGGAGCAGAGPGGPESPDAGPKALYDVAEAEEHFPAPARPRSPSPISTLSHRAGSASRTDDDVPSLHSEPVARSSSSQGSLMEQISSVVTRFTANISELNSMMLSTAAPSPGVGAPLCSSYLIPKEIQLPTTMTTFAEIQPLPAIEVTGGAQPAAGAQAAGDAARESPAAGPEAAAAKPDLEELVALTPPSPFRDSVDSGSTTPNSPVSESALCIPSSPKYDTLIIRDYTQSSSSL
Experiment: Cell-based functional Ca2+ mobilization assay (FDSS), potentiation of glutamate EC20 response
Settings: H10H cell-line; maximum % effect as percent of response to maximally effective glutamate; glutamate EC20 present; read-out: Emax (%)
Parameter Emax: see the listing below.
# value in %; strip the unit string

Illustrative cases are given below, each with its answer.
| COMPOUND | Emax (%) |
| --- | --- |
| CC1CN(CC2CC2)C(=O)c2cc(COc3ccccc3)nn2C1 (stereo not drawn) [Compound 28] | 30 |
| O=C1c2cc(COc3cccc(F)c3)nn2CCN1C[C@@H]1CC1(F)F [Compound 21] | 65 |
| O=C1c2cc(COc3ccccc3)nn2CCN1C1CCCOC1 (racemic) [Compound 20] | 52 |
| O=C1c2cc(COc3ccccc3)nn2CCCN1CC1CC1(F)F (racemic) [Compound 25] | 58 |
| O=C1c2cc(COc3ccccc3)nn2CCN1C1COC1 [Compound 8] | 30 |
| C[C@@H]1Cn2nc(COc3ccccc3)cc2C(=O)N1CC1CC1(F)F (stereo partly drawn) [Compound 4] | 72 |
| O=C1c2cc(COc3ccccc3)nn2CCN1C1CCNCC1 [Compound 37] | 22 |
| O=C1c2cc(COc3ccccc3)nn2CCN1C1Cc2ccccc2C1 [Compound 17] | 77 |

Consider the compound CC1(C)CN(CC2CC2)C(=O)c2cc(COc3ccccc3)nn2C1 [Compound 24] and give its measured Emax.
38

Consider the compound O=C1c2cc(COc3ccccc3)nn2CCN1C[C@H]1CC1(F)F [Compound 1] and give its measured Emax.
55

Consider the compound O=C1c2cc(COc3cccc(F)c3)nn2CCN1C[C@H]1CC1(F)F [Compound 14] and give its measured Emax.
51

Consider the compound O=C1c2cc(COc3ccccc3)nn2CCCN1CC1CC1 [Compound 22] and give its measured Emax.
59

Consider the compound CC1(CN2CCn3nc(COc4ccccc4)cc3C2=O)COC1 [Compound 31] and give its measured Emax.
71

Consider the compound CC1(C)CCC(N2CCn3nc(COc4ccccc4)cc3C2=O)CC1 [Compound 16] and give its measured Emax.
71

Consider the compound O=C1c2cc(COc3ccccc3)nn2CCN1C1CCCCC1 [Compound 13] and give its measured Emax.
58
